Method Summary: Hemolytic activity in male Sprague-Dawley rat erythrocytes at 25 uM incubated for 1 hr by absorbance based method relative to control
Format: toxicity, cell-based, Erythrocyte
Test Context: read-out: Activity
Non-standard residues stand in square brackets, D forms with d. Residues, ends and D or L forms follow the SMILES beside them. *: point of attachment. X3 = NC(=O)[C@H](Cc1c[nH]cn1)NC(=O)CNC(=O)[C@@H](N)CN(CCc1c[nH]c2ccccc12)*; X1 = NC(=O)[C@H](Cc1c[nH]cn1)NC(=O)CNC(=O)[C@@H](N)CN*; Gly(N(CH2)2(3-indolyl)) = O=C(O)CNCCc1c[nH]c2ccccc12; Nspe = C[C@H](NCC(=O)O)c1ccccc1; Nphe = O=C(O)CNCc1ccccc1; Nlys = NCCCCNCC(=O)O
In this section, each of the compounds is paired with its reported hemolysis at 1 h, 25 µM.
Parameter Measured: hemolysis at 1 h, 25 µM

• C[C@@H](c1ccccc1)N(CC(=O)NCC(=O)NC[C@H](N)C(=O)NCC(=O)N[C@@H](Cc1c[nH]cn1)C(N)=O)C(=O)CN(CCCCN)C(=O)CN(C(=O)CN(C(=O)CN(CCCCN)C(=O)CN(C(=O)CN(C(=O)CN(CCCCN)C(=O)CN(C(=O)CN(C(=O)CNCCCCN)[C@@H](C)c1ccccc1)[C@@H](C)c1ccccc1)[C@@H](C)c1ccccc1)[C@@H](C)c1ccccc1)[C@@H](C)c1ccccc1)[C@@H](C)c1ccccc1 (H-[Nlys][Nspe][Nspe][Nlys][Nspe][Nspe][Nlys][Nspe][Nspe][Nlys][Nspe]G-X1) = 2.02%
• C[C@@H](c1ccccc1)N(CC(=O)N(CCCCN)CC(=O)N(CC(=O)N(CC(=O)N(CCCCN)CC(=O)N(CC(=O)N(CC(=O)N(CCCCN)CC(=O)N(CCc1c[nH]c2ccccc12)CC(=O)N(CCc1c[nH]c2ccccc12)C[C@H](N)C(=O)NCC(=O)N[C@@H](Cc1c[nH]cn1)C(N)=O)[C@@H](C)c1ccccc1)[C@@H](C)c1ccccc1)[C@@H](C)c1ccccc1)[C@@H](C)c1ccccc1)C(=O)CN(C(=O)CNCCCCN)[C@@H](C)c1ccccc1 (H-[Nlys][Nspe][Nspe][Nlys][Nspe][Nspe][Nlys][Nspe][Nspe][Nlys][Gly(N(CH2)2(3-indolyl))]-X3) = 11.1%
• C[C@@H](c1ccccc1)N(CC(=O)N(CCCCN)CC(=O)N(CC(=O)N(CC(=O)N(CCCCN)CC(=O)N(CC(=O)N(CC(=O)N(CCCCN)CC(=O)N(CCc1c[nH]c2ccccc12)CC(=O)N(CCc1c[nH]c2ccccc12)CC(N)=O)Cc1ccccc1)Cc1ccccc1)Cc1ccccc1)Cc1ccccc1)C(=O)CN(Cc1ccccc1)C(=O)CN(CCCCN)C(=O)[C@H](Cc1c[nH]cn1)NC(=O)CNC(=O)CN (H-GGH[Nlys][Nphe][Nspe][Nlys][Nphe][Nphe][Nlys][Nphe][Nphe][Nlys][Gly(N(CH2)2(3-indolyl))][Gly(N(CH2)2(3-indolyl))]-NH2) = 12.7%
• C[C@@H](c1ccccc1)N(CC(=O)N(CCCCN)CC(=O)N(CC(=O)N(CC(=O)N(CCCCN)CC(=O)N(CC(=O)N(CC(=O)N(CCCCN)CC(=O)N(CC(=O)N(CC(N)=O)Cc1ccccc1)Cc1ccccc1)Cc1ccccc1)Cc1ccccc1)Cc1ccccc1)Cc1ccccc1)C(=O)CN(Cc1ccccc1)C(=O)CNCCCCN (H-[Nlys][Nphe][Nspe][Nlys][Nphe][Nphe][Nlys][Nphe][Nphe][Nlys][Nphe][Nphe]-NH2) = 0.21%
• C[C@@H](c1ccccc1)N(CC(N)=O)C(=O)CN(CCCCN)C(=O)CN(C(=O)CN(C(=O)CN(CCCCN)C(=O)CN(C(=O)CN(C(=O)CN(CCCCN)C(=O)CN(C(=O)CN(C(=O)CN(CCCCN)C(=O)CNC(=O)[C@H](Cc1c[nH]cn1)NC(=O)CNC(=O)CN)[C@@H](C)c1ccccc1)[C@@H](C)c1ccccc1)[C@@H](C)c1ccccc1)[C@@H](C)c1ccccc1)[C@@H](C)c1ccccc1)[C@@H](C)c1ccccc1 (H-GGHG[Nlys][Nspe][Nspe][Nlys][Nspe][Nspe][Nlys][Nspe][Nspe][Nlys][Nspe]-NH2) = 6.5%
• C[C@@H](c1ccccc1)N(CC(N)=O)C(=O)CN(C(=O)CN(CCCCN)C(=O)CN(Cc1ccccc1)C(=O)CN(Cc1ccccc1)C(=O)CN(CCCCN)C(=O)CN(Cc1ccccc1)C(=O)CN(Cc1ccccc1)C(=O)CN(CCCCN)C(=O)CN(CCc1c[nH]c2ccccc12)C(=O)CN(CCc1c[nH]c2ccccc12)C(=O)CN(CCCCN)C(=O)[C@H](Cc1c[nH]cn1)NC(=O)CNC(=O)CN)[C@@H](C)c1ccccc1 (H-GGH[Nlys][Gly(N(CH2)2(3-indolyl))][Gly(N(CH2)2(3-indolyl))][Nlys][Nphe][Nphe][Nlys][Nphe][Nphe][Nlys][Nspe][Nspe]-NH2) = 13.8%
• C[C@@H](c1ccccc1)N(CC(=O)N(CC(=O)N(CCCCN)CC(=O)N(CC(=O)N(CC(=O)N(CCCCN)CC(=O)N(CC(=O)N(CC(=O)N(CCCCN)CC(=O)N(CC(=O)N(CC(N)=O)Cc1ccccc1)Cc1ccccc1)Cc1ccccc1)Cc1ccccc1)Cc1ccccc1)Cc1ccccc1)Cc1ccccc1)C(=O)CN(CCCCN)C(=O)CNC(=O)[C@H](Cc1c[nH]cn1)NC(=O)CNC(=O)CN (H-GGHG[Nlys][Nspe][Nphe][Nlys][Nphe][Nphe][Nlys][Nphe][Nphe][Nlys][Nphe][Nphe]-NH2) = -0.43%
• C[C@@H](c1ccccc1)N(CC(=O)N(CCCCN)CC(=O)N(CC(=O)N(CC(=O)N(CCCCN)CC(=O)N(CC(=O)N(CC(=O)NC[C@H](N)C(=O)NCC(=O)N[C@@H](Cc1c[nH]cn1)C(N)=O)Cc1ccccc1)Cc1ccccc1)[C@@H](C)c1ccccc1)[C@@H](C)c1ccccc1)C(=O)CN(C(=O)CN(CCCCN)C(=O)CN(Cc1ccccc1)C(=O)CN(Cc1ccccc1)C(=O)CNCCCCN)[C@@H](C)c1ccccc1 (H-[Nlys][Nphe][Nphe][Nlys][Nspe][Nspe][Nlys][Nspe][Nspe][Nlys][Nphe][Nphe]-X1) = 0.66%
